# Ki against Neurotensin receptor type 2 (Rattus norvegicus), merged from multiple literature sources
# Sequence (Q63384 whole entry): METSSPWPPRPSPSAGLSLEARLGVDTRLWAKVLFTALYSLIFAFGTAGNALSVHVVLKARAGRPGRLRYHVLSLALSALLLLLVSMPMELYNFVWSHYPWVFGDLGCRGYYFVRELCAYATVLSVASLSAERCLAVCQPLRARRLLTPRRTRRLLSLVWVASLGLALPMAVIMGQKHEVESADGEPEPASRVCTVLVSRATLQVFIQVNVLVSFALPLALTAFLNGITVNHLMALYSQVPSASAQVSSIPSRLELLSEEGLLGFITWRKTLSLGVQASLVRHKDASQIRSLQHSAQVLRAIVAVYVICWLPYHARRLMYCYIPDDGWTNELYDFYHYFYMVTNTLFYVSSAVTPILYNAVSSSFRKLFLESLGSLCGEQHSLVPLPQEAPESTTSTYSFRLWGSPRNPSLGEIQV
MEASURED PARAMETER: Ki (µM)

Some compounds with known Ki results, for comparison:
CCc1c(C(=O)N[C@H](C(=O)O)C2CCCCC2)nn(-c2ccnc3cc(Cl)ccc23)c1-c1c(OC)cccc1OC ... 1.18
Cc1ccc(S(=O)(=O)Nc2ccc3c(ccn3CC(=O)N[C@@H](CC(C)C)C(=O)O)c2)cc1 ... 1.5
COc1cccc(OC)c1-c1cc(C(=O)NC2(C(=O)O)C3CC4CC(C3)CC2C4)nn1-c1ccc(C(=O)N(C)CCCN(C)C)cc1C(C)C (stereo not given) ... 0.006

I. COc1cccc(OC)c1-c1cc(NC(=O)C2(C(=O)O)CCCCC2)nn1-c1ccnc2cc(Cl)ccc12
II. COc1cccc(OC)c1-c1cc(C(=O)NC2(C(=O)O)C3CC4CC(C3)CC2C4)nn1-c1ccnc2cc(Cl)ccc12 (stereo not given)
Hi team, can someone confirm which has the larger Ki: I or II ? Thanks. Could you answer with the label of the item you picked? I
